# experimental_target: HLA-A*26:01
# assay_explanation: IEDB peptide-MHC binding, purified MHC/direct/fluorescence; filed as Kd, often an IC50 or EC50 that approximates it; bounds were set here for any values at or beyond the usual limits of such assays
# test_conditions: source organism: Pseudomonas aeruginosa
outcome_measure: Kd

Kd value, target or system HLA-A*26:01, for `RSFAERLDR` : ≥ 20 µM

---

# experimental_target: HLA-B*35:01
# assay_explanation: IEDB peptide-MHC binding, purified MHC/direct/fluorescence; filed as Kd, often an IC50 or EC50 that approximates it; bounds were set here for any values at or beyond the usual limits of such assays
# test_conditions: source organism: Pseudomonas fluorescens
outcome_measure: pKd
pKd is defined as minus the log10 of a concentration measured in mol/L.

Field pKd (system: HLA-B*35:01) for entry `FVSVYFSDY` = 7.18
